Reference source for all entries: patent US8124610B2

- TESTED_SYSTEM: hSCN9A (Homo sapiens, UniProt Q15858)
- Construct: expressed in transfected cells
- Sequence (Q15858 whole entry): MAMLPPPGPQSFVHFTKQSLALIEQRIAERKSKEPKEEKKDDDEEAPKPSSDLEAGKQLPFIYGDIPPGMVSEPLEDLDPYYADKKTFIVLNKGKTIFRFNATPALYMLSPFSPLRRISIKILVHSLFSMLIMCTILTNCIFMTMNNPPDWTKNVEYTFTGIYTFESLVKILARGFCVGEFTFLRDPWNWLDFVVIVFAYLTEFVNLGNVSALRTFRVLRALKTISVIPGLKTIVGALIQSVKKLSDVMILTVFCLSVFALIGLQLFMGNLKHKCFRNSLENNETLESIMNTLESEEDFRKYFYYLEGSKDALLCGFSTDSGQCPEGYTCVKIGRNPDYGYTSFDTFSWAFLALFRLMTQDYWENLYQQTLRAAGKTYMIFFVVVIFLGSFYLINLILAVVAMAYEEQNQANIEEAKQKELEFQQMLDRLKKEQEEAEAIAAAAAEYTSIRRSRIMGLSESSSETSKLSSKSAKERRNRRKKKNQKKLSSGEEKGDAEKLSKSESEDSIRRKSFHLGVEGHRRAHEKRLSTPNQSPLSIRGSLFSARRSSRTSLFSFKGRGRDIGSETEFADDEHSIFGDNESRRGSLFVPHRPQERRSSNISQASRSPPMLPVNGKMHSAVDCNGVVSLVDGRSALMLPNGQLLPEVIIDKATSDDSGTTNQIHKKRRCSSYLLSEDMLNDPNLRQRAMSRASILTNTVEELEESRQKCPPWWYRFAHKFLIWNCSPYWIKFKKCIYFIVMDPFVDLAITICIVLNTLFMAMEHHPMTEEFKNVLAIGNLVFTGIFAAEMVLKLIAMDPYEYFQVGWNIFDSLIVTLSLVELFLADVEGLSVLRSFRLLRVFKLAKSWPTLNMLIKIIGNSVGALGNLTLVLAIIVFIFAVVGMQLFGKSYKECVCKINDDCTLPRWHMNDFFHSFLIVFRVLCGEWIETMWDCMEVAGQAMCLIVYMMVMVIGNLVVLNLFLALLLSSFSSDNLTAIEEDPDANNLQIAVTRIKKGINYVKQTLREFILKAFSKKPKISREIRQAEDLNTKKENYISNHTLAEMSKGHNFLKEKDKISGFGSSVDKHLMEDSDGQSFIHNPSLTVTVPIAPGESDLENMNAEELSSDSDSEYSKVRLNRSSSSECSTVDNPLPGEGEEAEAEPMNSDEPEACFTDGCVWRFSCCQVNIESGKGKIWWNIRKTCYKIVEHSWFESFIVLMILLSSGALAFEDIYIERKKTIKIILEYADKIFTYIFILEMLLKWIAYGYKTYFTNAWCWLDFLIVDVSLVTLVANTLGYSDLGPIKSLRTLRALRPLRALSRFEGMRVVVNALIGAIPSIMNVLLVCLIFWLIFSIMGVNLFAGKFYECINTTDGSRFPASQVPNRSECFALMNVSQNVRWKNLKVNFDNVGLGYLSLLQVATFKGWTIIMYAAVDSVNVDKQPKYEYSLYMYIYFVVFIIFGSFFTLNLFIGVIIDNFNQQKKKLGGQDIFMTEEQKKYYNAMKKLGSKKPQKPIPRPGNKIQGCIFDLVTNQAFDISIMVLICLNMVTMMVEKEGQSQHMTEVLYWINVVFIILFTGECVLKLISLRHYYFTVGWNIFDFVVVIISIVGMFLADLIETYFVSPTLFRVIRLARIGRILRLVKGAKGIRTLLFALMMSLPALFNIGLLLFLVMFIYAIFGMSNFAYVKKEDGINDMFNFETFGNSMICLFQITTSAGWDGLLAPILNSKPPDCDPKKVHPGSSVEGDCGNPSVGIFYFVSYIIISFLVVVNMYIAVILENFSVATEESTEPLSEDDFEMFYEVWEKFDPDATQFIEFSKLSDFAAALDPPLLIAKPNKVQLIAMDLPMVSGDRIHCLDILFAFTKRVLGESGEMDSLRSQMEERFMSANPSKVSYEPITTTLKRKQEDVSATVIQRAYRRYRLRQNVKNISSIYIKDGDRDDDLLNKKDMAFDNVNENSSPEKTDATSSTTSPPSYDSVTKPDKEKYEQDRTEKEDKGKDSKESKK
- EXPERIMENTAL_DETAILS: Whole-cell patch-clamp electrophysiology (conventional or PatchXpress), HEK cells expressing hSCN9A, estimated IC-50
- Format: cell-based
- RUN_CONDITIONS: Table V; estimated IC-50 from single point electrophysiology, cells clamped at V1/2; read-out: SCN9A EIC-50
- Protocol: Human Embryonic Kidney (HEK) cells were transfected with hSCN3A or hSCN9A constructs using lipofectamine reagent (Invitrogen), using standard techniques. […] The voltage-dependence of inactivation was determined by applying a series of depolarizing prepulses (8 sec long in 10 mV increments) from a negative holding potential. […] Cells were then voltage clamped at the empirically determined V1/2. […]
pIC50: −log10 of the molar value.
Recorded measurements of pIC50, one per entry
PARAMETER: pIC50

- CPD_SMILES: "Cc1cc(Nc2ccc(S(=O)(=O)Nc3nccs3)c(F)c2)n(-c2ccccc2)n1"
  TESTED_SYSTEM: "hSCN9A (Homo sapiens, UniProt Q15858)"
  OBSERVED_MEASUREMENT: "> 5.70"
- CPD_SMILES: "CC(C)(C)c1cc(Nc2ccc(S(=O)(=O)Nc3nccs3)cc2)n(C(C)(C)C)n1"
  TESTED_SYSTEM: "hSCN9A (Homo sapiens, UniProt Q15858)"
  OBSERVED_MEASUREMENT: "5.00 to 5.70"
- CPD_SMILES: "O=S(=O)(Nc1nccs1)c1ccc(Nc2nnc(Cc3ccc(C(F)(F)F)cc3)o2)cc1"
  TESTED_SYSTEM: "hSCN9A (Homo sapiens, UniProt Q15858)"
  OBSERVED_MEASUREMENT: "< 5.00"
- CPD_SMILES: "O=S(=O)(Nc1nccs1)c1ccc(Nc2ccccc2-c2ccccc2)cc1F"
  TESTED_SYSTEM: "hSCN9A (Homo sapiens, UniProt Q15858)"
  OBSERVED_MEASUREMENT: "> 5.70"
- CPD_SMILES: "CC(C)(C)c1csc(Nc2ccc(S(=O)(=O)Nc3nccs3)c(F)c2)n1"
  TESTED_SYSTEM: "hSCN9A (Homo sapiens, UniProt Q15858)"
  OBSERVED_MEASUREMENT: "5.00 to 5.70"
- CPD_SMILES: "CC(C)(C)n1nc(Nc2ccc(S(=O)(=O)Nc3nccs3)cc2)nc1N"
  TESTED_SYSTEM: "hSCN9A (Homo sapiens, UniProt Q15858)"
  OBSERVED_MEASUREMENT: "< 5.00"
- CPD_SMILES: "O=S(=O)(Nc1nccs1)c1ccc(Nc2cnn(Cc3ccc(Cl)cc3)c2)cc1F"
  TESTED_SYSTEM: "hSCN9A (Homo sapiens, UniProt Q15858)"
  OBSERVED_MEASUREMENT: "> 5.70"
- CPD_SMILES: "Cn1nc(CC2CCCCC2)cc1Nc1ccc(S(=O)(=O)Nc2nccs2)cc1"
  TESTED_SYSTEM: "hSCN9A (Homo sapiens, UniProt Q15858)"
  OBSERVED_MEASUREMENT: "> 5.70"
